Origin of the recorded values: patent US11806323B2

Provide the reported pIC50 of each item.
- testedTarget: Nav1.7 (Homo sapiens, UniProt Q15858)
- Construct: ChanTest Corp; host or cells: CHO cells (Chinese hamster)
- Sequence (Q15858 whole entry): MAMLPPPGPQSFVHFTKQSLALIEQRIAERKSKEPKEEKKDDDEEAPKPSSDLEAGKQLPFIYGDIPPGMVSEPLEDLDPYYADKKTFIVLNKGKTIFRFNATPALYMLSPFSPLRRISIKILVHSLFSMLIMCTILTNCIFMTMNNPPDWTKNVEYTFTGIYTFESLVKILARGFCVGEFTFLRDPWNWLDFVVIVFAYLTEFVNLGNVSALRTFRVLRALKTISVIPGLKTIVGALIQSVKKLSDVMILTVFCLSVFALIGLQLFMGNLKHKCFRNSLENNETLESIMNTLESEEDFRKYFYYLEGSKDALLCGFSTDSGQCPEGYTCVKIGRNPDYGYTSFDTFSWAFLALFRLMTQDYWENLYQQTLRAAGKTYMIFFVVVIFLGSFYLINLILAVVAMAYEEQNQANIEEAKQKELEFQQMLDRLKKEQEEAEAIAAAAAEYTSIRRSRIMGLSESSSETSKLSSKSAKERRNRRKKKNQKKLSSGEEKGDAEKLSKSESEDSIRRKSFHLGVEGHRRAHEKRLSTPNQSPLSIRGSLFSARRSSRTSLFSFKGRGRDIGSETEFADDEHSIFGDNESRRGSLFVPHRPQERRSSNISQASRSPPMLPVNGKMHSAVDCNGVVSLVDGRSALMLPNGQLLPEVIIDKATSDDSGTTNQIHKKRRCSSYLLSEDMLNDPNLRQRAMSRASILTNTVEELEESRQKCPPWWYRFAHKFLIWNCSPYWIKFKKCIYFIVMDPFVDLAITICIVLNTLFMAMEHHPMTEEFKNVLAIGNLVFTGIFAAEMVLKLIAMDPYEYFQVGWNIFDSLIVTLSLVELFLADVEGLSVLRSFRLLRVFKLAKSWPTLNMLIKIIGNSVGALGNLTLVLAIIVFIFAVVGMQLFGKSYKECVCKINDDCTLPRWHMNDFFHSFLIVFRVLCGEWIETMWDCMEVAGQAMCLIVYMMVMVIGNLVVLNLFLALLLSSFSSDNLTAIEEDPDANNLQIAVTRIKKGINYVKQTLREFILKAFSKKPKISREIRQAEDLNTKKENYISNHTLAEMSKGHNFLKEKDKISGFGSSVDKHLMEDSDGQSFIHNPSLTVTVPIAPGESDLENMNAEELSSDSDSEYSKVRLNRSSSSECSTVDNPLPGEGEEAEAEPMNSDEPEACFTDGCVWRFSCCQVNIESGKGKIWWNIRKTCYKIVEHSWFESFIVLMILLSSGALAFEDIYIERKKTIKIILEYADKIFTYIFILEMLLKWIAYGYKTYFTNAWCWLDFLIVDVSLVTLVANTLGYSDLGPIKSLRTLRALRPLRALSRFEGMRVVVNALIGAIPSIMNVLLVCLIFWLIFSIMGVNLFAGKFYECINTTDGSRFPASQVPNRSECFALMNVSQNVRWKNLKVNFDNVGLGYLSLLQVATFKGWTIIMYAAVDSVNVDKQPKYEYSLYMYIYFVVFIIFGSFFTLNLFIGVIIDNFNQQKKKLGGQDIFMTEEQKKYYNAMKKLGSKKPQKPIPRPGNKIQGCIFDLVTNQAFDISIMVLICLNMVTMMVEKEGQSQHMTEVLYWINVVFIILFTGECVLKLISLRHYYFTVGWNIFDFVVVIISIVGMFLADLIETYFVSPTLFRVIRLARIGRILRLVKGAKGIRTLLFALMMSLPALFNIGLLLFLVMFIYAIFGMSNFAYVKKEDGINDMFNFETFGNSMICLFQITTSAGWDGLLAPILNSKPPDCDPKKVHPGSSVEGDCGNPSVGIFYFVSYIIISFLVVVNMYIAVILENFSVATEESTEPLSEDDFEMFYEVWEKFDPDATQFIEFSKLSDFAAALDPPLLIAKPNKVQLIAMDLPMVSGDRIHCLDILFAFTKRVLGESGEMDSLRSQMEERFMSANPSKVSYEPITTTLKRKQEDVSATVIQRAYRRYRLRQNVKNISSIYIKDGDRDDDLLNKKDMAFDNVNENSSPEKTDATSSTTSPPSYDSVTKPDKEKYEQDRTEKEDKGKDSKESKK
- assayRemarks: Patch clamp testing, Nav1.7 ion channel inhibition (SyncroPatch 384PE)
- Assay type: cell-based
pIC50: −log10 of the molar value.

Task: Indicate its recorded pIC50; the molecule in question is `COc1ccc(N(C)C(=O)CN(CCN(C)C)c2ccccc2OC)cc1`
Output: < 3.00

Task: Indicate its recorded pIC50; the molecule in question is `COc1ccc(N(C)C(=O)CN(CCN(C)C)c2ccccc2C)cc1`
Output: < 3.00

###

- testedTarget: Nav1.7 (Homo sapiens)
- Construct: ChanTest Corp; host or cells: CHO cells (Chinese hamster)
- assayRemarks: Patch clamp testing, Nav1.7 ion channel inhibition (SyncroPatch 384PE)
- Type: cell-based
- conditionSet: TP1A = Tonic Block; CHO cells transfected with human ion channel cDNA; 0.3% DMSO; read-out: Inhibition of Nav1.7 Ion Channel IC50, TP1A
quantity: IC50 (µM)
Report only the number, with the unit µM understood.

Task: Fill in IC50 for `COc1ccc(N(C)C(=O)CN(CCN(C)C)c2cccc(Cl)c2F)cc1` tested with Nav1.7 (Homo sapiens).
Output: 546

Task: Fill in IC50 for `COc1ccc(N(C)C(=O)CN(CCN(C)C)c2ccc(F)c(Cl)c2)cc1` tested with Nav1.7 (Homo sapiens).
Output: 393

Task: Fill in IC50 for `COc1ccc(N(C)C(=O)CN(CCN(C)C)c2cc(Cl)ccc2Cl)cc1` tested with Nav1.7 (Homo sapiens).
Output: 273

Task: Fill in IC50 for `COc1ccc(N(C)C(=O)CN(CCN(C)C)c2ccc(Cl)c(Cl)c2)cc1` tested with Nav1.7 (Homo sapiens).
Output: 165

Task: Fill in IC50 for `COc1ccc(N(C)C(=O)CN(CCN(C)C)c2cccc(OC(F)(F)F)c2)cc1` tested with Nav1.7 (Homo sapiens).
Output: 265

Task: Fill in IC50 for `COc1ccc(N(C)C(=O)CN(CCN(C)C)c2ccccc2C(F)(F)F)cc1` tested with Nav1.7 (Homo sapiens).
Output: 312

Task: Fill in IC50 for `COc1ccc(N(C)C(=O)CN(CCN(C)C)c2ccc(Cl)c(C(F)(F)F)c2)cc1` tested with Nav1.7 (Homo sapiens).
Output: 74.7

Task: Fill in IC50 for `COc1ccc(N(C)C(=O)CN(CCN)c2ccccc2)cc1` tested with Nav1.7 (Homo sapiens).
Output: 70.2

Task: Fill in IC50 for CCN(CC)CC(=O)Nc1c(C)cccc1C [Lidocaine, reference compound] tested with Nav1.7 (Homo sapiens).
Output: 408

Task: Fill in IC50 for `COc1ccc(N(C)C(=O)CN(CCN(C)C)c2cccc(Cl)c2)cc1` tested with Nav1.7 (Homo sapiens).
Output: 561

Task: Fill in IC50 for `COc1ccc(N(C)C(=O)CN(CCN2CCCCC2)c2ccccc2)cc1` tested with Nav1.7 (Homo sapiens).
Output: 15

###

Provide the reported pIC50 of each item.
- testedTarget: Nav1.5 (Homo sapiens, UniProt Q14524)
- Construct: ChanTest Corp; host or cells: CHO cells (Chinese hamster)
- Sequence (Q14524 whole entry): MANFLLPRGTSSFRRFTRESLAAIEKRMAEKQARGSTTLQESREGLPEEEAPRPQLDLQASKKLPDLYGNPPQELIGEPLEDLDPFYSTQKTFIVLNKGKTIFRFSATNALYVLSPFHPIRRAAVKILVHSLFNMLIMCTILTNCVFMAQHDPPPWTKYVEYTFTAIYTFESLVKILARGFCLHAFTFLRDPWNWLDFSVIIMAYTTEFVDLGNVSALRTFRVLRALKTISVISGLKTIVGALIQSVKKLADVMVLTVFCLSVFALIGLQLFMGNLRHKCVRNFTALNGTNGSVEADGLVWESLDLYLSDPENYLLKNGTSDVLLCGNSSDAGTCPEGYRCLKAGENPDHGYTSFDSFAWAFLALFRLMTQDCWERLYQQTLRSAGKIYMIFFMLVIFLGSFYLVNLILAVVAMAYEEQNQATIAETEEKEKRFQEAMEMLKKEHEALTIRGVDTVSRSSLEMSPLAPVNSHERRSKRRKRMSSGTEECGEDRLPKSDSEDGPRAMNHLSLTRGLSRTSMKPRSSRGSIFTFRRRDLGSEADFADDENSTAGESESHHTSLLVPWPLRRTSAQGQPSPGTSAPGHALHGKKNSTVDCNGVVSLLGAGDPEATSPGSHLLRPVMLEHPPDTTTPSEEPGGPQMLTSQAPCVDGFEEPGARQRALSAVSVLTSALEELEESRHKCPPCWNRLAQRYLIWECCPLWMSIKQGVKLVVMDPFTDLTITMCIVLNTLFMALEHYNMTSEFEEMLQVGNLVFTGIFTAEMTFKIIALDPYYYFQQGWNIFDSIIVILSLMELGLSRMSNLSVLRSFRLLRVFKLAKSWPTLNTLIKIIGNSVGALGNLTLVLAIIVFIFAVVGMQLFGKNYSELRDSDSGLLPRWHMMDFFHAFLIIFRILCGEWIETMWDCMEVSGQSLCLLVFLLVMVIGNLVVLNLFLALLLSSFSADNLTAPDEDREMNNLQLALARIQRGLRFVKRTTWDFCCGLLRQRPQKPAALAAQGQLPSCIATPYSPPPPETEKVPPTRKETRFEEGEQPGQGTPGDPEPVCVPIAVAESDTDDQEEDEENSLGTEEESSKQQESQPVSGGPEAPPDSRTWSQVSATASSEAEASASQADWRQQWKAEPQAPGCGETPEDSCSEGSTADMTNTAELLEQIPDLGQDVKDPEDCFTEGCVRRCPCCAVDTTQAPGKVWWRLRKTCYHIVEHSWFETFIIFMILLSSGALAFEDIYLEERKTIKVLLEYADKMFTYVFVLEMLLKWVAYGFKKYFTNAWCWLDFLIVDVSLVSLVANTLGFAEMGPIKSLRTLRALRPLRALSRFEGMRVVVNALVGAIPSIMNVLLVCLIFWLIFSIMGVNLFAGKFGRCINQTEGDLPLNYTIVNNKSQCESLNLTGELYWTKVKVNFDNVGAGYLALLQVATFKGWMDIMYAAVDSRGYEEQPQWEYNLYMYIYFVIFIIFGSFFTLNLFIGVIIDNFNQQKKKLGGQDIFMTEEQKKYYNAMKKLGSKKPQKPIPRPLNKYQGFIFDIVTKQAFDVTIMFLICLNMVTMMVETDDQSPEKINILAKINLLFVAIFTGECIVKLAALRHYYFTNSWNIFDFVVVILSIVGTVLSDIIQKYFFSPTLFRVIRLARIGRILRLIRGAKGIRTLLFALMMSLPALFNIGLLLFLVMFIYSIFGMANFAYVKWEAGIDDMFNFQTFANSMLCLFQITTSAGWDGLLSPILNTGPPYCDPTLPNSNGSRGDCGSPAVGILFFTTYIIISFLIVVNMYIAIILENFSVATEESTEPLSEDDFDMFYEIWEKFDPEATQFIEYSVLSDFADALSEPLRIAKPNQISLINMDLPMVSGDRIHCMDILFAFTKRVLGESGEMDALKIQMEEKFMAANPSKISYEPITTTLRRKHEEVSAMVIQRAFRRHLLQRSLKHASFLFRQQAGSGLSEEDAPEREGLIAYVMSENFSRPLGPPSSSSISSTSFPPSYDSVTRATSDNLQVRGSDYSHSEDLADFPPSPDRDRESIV
- assayRemarks: Patch clamp testing, Nav1.5 ion channel inhibition (SyncroPatch 384PE)
- Type: cell-based
- conditionSet: Inhibition of Nav1.5 Ion Channel IC50, TP2A, TP2A = Inactivated State-Dependent Block; CHO cells transfected with human ion channel cDNA; 0.3% DMSO
Interpret pIC50 as the negative base-10 log of the concentration measured in mol/L.

Task: Indicate its recorded pIC50; the molecule in question is COc1ccc(N(C)C(=O)CN(CCN(C)C)c2ccc(Cl)c(C(F)(F)F)c2)cc1 [Compound 2297]
Output: 4.04

Task: Indicate its recorded pIC50; the molecule in question is COc1ccc(N(C)C(=O)CN(CCN(C)C)c2cc(Cl)ccc2Cl)cc1 [Compound 2298]
Output: 3.62

Task: Indicate its recorded pIC50; the molecule in question is COc1ccc(N(C)C(=O)CN(CCN)c2ccccc2)cc1 [Compound 2302]
Output: 4.01

Task: Indicate its recorded pIC50; the molecule in question is COc1ccc(N(C)C(=O)CN(CCN(C)C)c2ccc(Cl)c(Cl)c2)cc1 [Compound 2292]
Output: 3.67

Task: Indicate its recorded pIC50; the molecule in question is COc1ccc(N(C)C(=O)CN(CCN2CCCCC2)c2ccccc2)cc1 [Compound 2303]
Output: 4.87

Task: Indicate its recorded pIC50; the molecule in question is COc1ccc(N(C)C(=O)CN(CCN(C)C)c2cccc(OC(F)(F)F)c2)cc1 [Compound 2296]
Output: 3.63

###

- testedTarget: Nav1.5 (Homo sapiens, UniProt Q14524)
- Construct: ChanTest Corp; host or cells: CHO cells (Chinese hamster)
- assayRemarks: Patch clamp testing, Nav1.5 ion channel inhibition (SyncroPatch 384PE)
- Type: cell-based
- conditionSet: Inhibition of Nav1.5 Ion Channel IC50, TP1A, TP1A = Tonic Block; CHO cells transfected with human ion channel cDNA; 0.3% DMSO
quantity: pIC50
Interpret pIC50 as the negative base-10 log of the concentration measured in mol/L.

Task: Indicate its recorded pIC50; the molecule in question is `COc1ccc(N(C)C(=O)CN(CCN(C)C)c2ccccc2C(F)(F)F)cc1`
Output: 3.58

Task: Indicate its recorded pIC50; the molecule in question is `COc1ccc(N(C)C(=O)CN(CCN(C)C)c2ccc(Cl)c(Cl)c2)cc1`
Output: 3.68

Task: Indicate its recorded pIC50; the molecule in question is `COc1ccc(N(C)C(=O)CN(CCN(C)C)c2ccc(F)c(Cl)c2)cc1`
Output: 3.29

###

Provide the reported IC50 of each item.
- testedTarget: Nav1.7 (Homo sapiens)
- Construct: ChanTest Corp; host or cells: CHO cells (Chinese hamster)
- assayRemarks: Patch clamp testing, Nav1.7 ion channel inhibition (SyncroPatch 384PE)
- Format: cell-based
- conditionSet: TP25B = Use-Dependent Block; CHO cells transfected with human ion channel cDNA; 0.3% DMSO; read-out: Inhibition of Nav1.7 Ion Channel IC50, TP25B
Report only the number, with the unit µM understood.

Task: Indicate its recorded IC50; the compound in question is COc1ccc(N(C)C(=O)CN(CCN(C)C)c2cccc(Cl)c2F)cc1 [Compound 2300]
Output: 626

Task: Indicate its recorded IC50; the compound in question is COc1ccc(N(C)C(=O)CN(CCN(C)C)c2ccc(Cl)c(C(F)(F)F)c2)cc1 [Compound 2297]
Output: 54.4

###

- testedTarget: Nav1.7 (Homo sapiens)
- Construct: ChanTest Corp; host or cells: CHO cells (Chinese hamster)
- assayRemarks: Patch clamp testing, Nav1.7 ion channel inhibition (SyncroPatch 384PE)
- Type: cell-based
- conditionSet: TP2A = Inactivated State-Dependent Block; CHO cells transfected with human ion channel cDNA; 0.3% DMSO; read-out: Inhibition of Nav1.7 Ion Channel IC50, TP2A
Provide the reported IC50 of each item.

Task: Indicate its recorded IC50; the compound in question is COc1ccc(N(C)C(=O)CN(CCN2CCN(C)CC2)c2ccccc2)cc1 [Compound 2304]
Output: > 1000 µM

Task: Indicate its recorded IC50; the compound in question is COc1ccc(N(C)C(=O)CN(CCN(C)C)c2ccccc2)cc1 [Compound 2290]
Output: > 1000 µM

Task: Indicate its recorded IC50; the compound in question is COc1ccc(N(CCN(C)C)CC(=O)N(C)c2ccc(OC)cc2)cc1 [Compound 2294]
Output: > 1000 µM

###

- testedTarget: Nav1.5 (Homo sapiens)
- Construct: ChanTest Corp; host or cells: CHO cells (Chinese hamster)
- assayRemarks: Patch clamp testing, Nav1.5 ion channel inhibition (SyncroPatch 384PE)
- Assay type: cell-based
- conditionSet: Inhibition of Nav1.5 Ion Channel IC50, TP2A, TP2A = Inactivated State-Dependent Block; CHO cells transfected with human ion channel cDNA; 0.3% DMSO
Provide the reported IC50 of each item.

Task: Indicate its recorded IC50; the molecule in question is COc1ccc(N(CCN(C)C)CC(=O)N(C)c2ccc(OC)cc2)cc1 [Compound 2294]
Output: > 1000 µM

Task: Indicate its recorded IC50; the molecule in question is COc1ccc(N(C)C(=O)CN(CCN(C)C)c2ccccc2OC)cc1 [Compound 2293]
Output: > 1000 µM

Task: Indicate its recorded IC50; the molecule in question is COc1ccc(N(C)C(=O)CN(CCN(C)C)c2ccccc2C)cc1 [Compound 2295]
Output: > 1000 µM
